Assay Summary: Displacement of fluorescent Bocillin FL from Pseudomonas aeruginosa PBP2
Measurement Name: log10(IC50) (log10 of the value in µM)

Compound	log10(IC50)
CC(C)(O/N=C(\C(=O)N[C@H]1CON(C2(C(=O)O)C[C@H](NC(=O)OCc3ccccc3)C(=O)O2)C1=O)c1csc(N)n1)C(=O)O (stereo partly drawn)	1.52
CC(C)(O/N=C(\C(=O)N[C@H]1CON(C2(C(=O)O)C[C@@H](NC(=O)c3cc(=O)c(O)cn3O)C(=O)O2)C1=O)c1csc(N)n1)C(=O)O (stereo partly drawn)	0.81
CC(C)(O/N=C(\C(=O)N[C@H]1CON(C2(C(=O)O)C[C@H](N3C(=O)c4cc(O)c(O)cc4C3=O)C(=O)O2)C1=O)c1csc(N)n1)C(=O)O (stereo partly drawn)	0.57
CC(C)(O/N=C(\C(=O)N[C@H]1CON(C2(C(=O)O)C[C@@H](NC(=O)OCc3ccccc3)C(=O)O2)C1=O)c1csc(N)n1)C(=O)O (stereo partly drawn)	1.67
CC(C)(O/N=C(\C(=O)N[C@H]1CON(C2(C(=O)O)C[C@H](NC(=O)c3cc(=O)c(O)cn3O)C(=O)O2)C1=O)c1csc(N)n1)C(=O)O (stereo partly drawn)	0.57
CC(C)(O/N=C(\C(=O)N[C@H]1CON(C2(C(=O)O)CCC(=O)O2)C1=O)c1csc(N)n1)C(=O)O (stereo partly drawn)	1.52
Nc1nc(/C(=N/OCc2cc(=O)c(O)cn2O)C(=O)N[C@H]2CON(C3(C(=O)O)CCC(=O)O3)C2=O)cs1 (stereo partly drawn)	1.35
